Overview of recorded EC50 for various binders
# target-or-system: T1, human CD40-Fc protein (amino acid residue 21-193 of SEQ ID NO: 67 linked to N-terminus of amino acid residue … (human, biotin-labeled in the capture ELISA and in the benchmark blocking ELISA; unlabeled when coated in the ligand blocking ELISA)
# T1 construct: also called biotin-labeled human CD40-Fc; human CD40-Fc-biotin
# T1 sequence (chain, as listed by the source): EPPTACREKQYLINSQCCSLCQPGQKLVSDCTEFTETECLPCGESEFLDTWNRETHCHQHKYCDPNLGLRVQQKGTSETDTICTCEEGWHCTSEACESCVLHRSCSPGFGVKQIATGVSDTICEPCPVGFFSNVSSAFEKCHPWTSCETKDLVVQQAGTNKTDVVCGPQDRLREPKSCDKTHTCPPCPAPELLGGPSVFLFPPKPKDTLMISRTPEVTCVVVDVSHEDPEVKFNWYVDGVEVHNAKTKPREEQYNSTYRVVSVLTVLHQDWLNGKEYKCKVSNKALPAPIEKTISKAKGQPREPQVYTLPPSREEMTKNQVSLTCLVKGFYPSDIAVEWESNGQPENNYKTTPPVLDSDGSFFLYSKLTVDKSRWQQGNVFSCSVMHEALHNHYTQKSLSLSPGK
# test: capture ELISA; antibody captured, biotin-labeled human CD40-Fc in solution
# Experimental: Plates were washed 4 times with wash buffer (PBS+0.05% Tween-20, PBST) and then blocked with 200 μl/well blocking buffer (5% w/v non-fatty milk in PBST) for 2 hours at 37° C. […] The reaction was stopped in 15 minutes at 25° C. with 50 μl/well 1M H₂SO₄, and the absorbance was read at 450 nm and plotted against antibody concentration. Data were analyzed using Graphpad Prism software and EC₅₀ values were reported.
Quick reminder: number only, in ng/mL, skip the unit.

These solved cases illustrate the format of a correct answer.
Q: Consider the binder shown here: humanized antibody huC1C1-V4 (antibody, human IgG1, kappa, V domains shown, Human IgG1/kappa) VH: EVQLVESGGGVVQPGRSLRLSCAASGFTFSNYGMSWVRQAPGKGLEWVASISSGGDDTYYPDNVKGRCTISRDNSKNTLYLQMNSLRAEDTAVYYCTRAGGKAMDYWGQGTLVTVSS VL: EIVLTQSPATLSLSPGERATLSCRASQSIRDNLHWYQQKPGQSPRLLIYYASQSISGIPARFSGSGSGTDFTLTISSLEPEDFAVYFCQQFNSWPLTFGQGTKVEIKR What is its recorded EC50?
A: 0.267

Q: Input mouse anti-CD40 monoclonal antibody C1C1 (antibody, V domains shown, those are used here for the chimeric antibody only; also called Mouse C1C1; mouse C1C1) VH: EVKLVESGGGLVKPGASLKLSCAASGFTFSNYGMSWVRQNSDKRLEWVASISSGGDDTYYPDNVKGRCTISRENAKNTLYLEMSSLKTEDTALYYCTRAGGKAMDYWGQGTSVTVST VL: DIVLTQSPATLSVIPGNSVSLSCRASQSIRDNLHWYQQKSHESPRLLINYASQSISGIPSRFSGSGSGTDFTLTINSVETEDFGIYFCQQFNSWPLTFGGGTKLELK
A: 0.155

Q: Input humanized antibody huC1C1-V3 (antibody, human IgG1, kappa, V domains shown, Human IgG1/kappa) VH: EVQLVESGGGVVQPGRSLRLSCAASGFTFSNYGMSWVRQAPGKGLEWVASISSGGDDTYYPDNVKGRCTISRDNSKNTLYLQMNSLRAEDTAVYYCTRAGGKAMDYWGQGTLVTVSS VL: EIVLTQSPATLSLSPGERATLSCRASQSIRDNLHWYQQKPGQAPRLLINYASQSISGIPARFSGSGSGTDFTLTISSLEPEDFAVYFCQQFNSWPLTFGQGTKVEIKR
A: 0.336

Moving on to the next binder.
Q: Consider the binder shown here: chimeric antibody C1C1 (antibody, human IgG1, kappa, V domains shown, also called chC1C1; chimeric C1C1) VH: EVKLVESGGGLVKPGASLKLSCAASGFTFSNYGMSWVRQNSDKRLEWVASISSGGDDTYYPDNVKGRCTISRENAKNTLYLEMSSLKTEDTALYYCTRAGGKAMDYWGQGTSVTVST VL: DIVLTQSPATLSVIPGNSVSLSCRASQSIRDNLHWYQQKSHESPRLLINYASQSISGIPSRFSGSGSGTDFTLTINSVETEDFGIYFCQQFNSWPLTFGGGTKLELKR What is its recorded EC50?
A: 0.384
